Tested on: UO-31
procedure_details: NCI tumour cell line growth inhibition, 48 h
Activity calls are given as the source filed them. No stated cut-off is given here; in the data, active = GI50 up to about 1.1 µM and inactive = higher.
Listing of recorded GI50 by entry.

{"smiles_code": "CO/C(N)=C(C#N)/N=C/c1ccco1", "GI50": "> 100 µM (inactive)"}
{"smiles_code": "O=C1c2ccccc2C(=O)[C@@]23O[C@@]12C1(Oc2cccc4cccc(c24)O1)[C@@H]1O[C@@H]1[C@@H]3O", "GI50": "9.18 µM (inactive)"}
{"smiles_code": "CC1=C(C(=O)Nc2ccc([N+](=O)[O-])cc2)C(c2ccco2)C(C(=O)Nc2ccc([N+](=O)[O-])cc2)=C(C)N1", "GI50": "7.24 µM (inactive)"}
{"smiles_code": "Cn1nc2ccc([N+](=O)[O-])c(Cn3nnc4ccccc43)c2n1", "GI50": "> 100 µM (inactive)"}
{"smiles_code": "O=C(Nc1c(-c2nc3ccccc3[nH]2)sc(=S)n1-c1ccccc1)c1ccccc1", "GI50": "> 100 µM (inactive)"}
